- measurement-description: qHTS assay to identify small molecule antagonists of the estrogen receptor alpha (ER-alpha) signaling pathway using the BG1 cell line (AID 743080);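 note: BG1 cells stimulated with 17beta-estradiol alongside compound; nearly all actives have a fitted effect of over 25% in size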
- details: BG1Luc4E2 ERE-luciferase antagonist mode, luminescence; series mostly up to 70.3 µM
Records with an inconclusive call do not appear. Active and inactive are the calls of the source. Calls come from the whole dose curve.
Outcome (select one): active, inactive

Known results for compounds:
compound: O=C(O)c1cccc(C[C@@H]2COc3ccc(OCc4nc5cc(F)ccc5s4)cc3[C@@H]2O)c1
assigned-class: inactive
--
compound: CSCC[C@H](NC(=O)[C@H](Cc1c[nH]c2ccccc12)NC(=O)CCNC(=O)OC(C)(C)C)C(=O)N[C@@H](CC(=O)O)C(=O)N[C@@H](Cc1ccccc1)C(N)=O
assigned-class: inactive
--
compound: Cc1ccc(N(CC2=NCCN2)c2cccc(O)c2)cc1
assigned-class: inactive
--
compound: CC(=O)OC(C)C[N+](C)(C)C (stereo unspecified)
assigned-class: inactive
--
compound: CC(C)c1ccc(C(=O)N=C(N)N)cc1S(C)(=O)=O
assigned-class: inactive
--
compound: Nc1ccc(NC(=O)c2ccc(N)cc2)cc1
assigned-class: inactive

INPUT: Please let me know the test result on file for CCCCCCCC(=O)Oc1c(Br)cc(C#N)cc1Br .
OUTPUT: active

INPUT: Please let me know the test result on file for Nc1c(Cl)cc(Cl)cc1[N+](=O)[O-] .
OUTPUT: inactive

INPUT: Please let me know the test result on file for N[C@@H](Cc1cc(I)c(O)c(I)c1)C(=O)O .
OUTPUT: inactive

INPUT: Please let me know the test result on file for CNC1CCCN(c2c(F)cc3c(=O)c(C(=O)O)cn(C4CC4)c3c2OC)C1 (stereo unspecified) .
OUTPUT: inactive

INPUT: Please let me know the test result on file for Nc1ccc(N=Nc2ccc(N)cc2)cc1 .
OUTPUT: inactive
